system: HepG2; test: drug sensitivity score (DSS) for viability; higher = more toxic; extreme values may be limits of the assay; conditions: 72 h
Readings of drug sensitivity score for the listed molecules
Could you keep your reply to the number by itself?

Prompt: Quick check: drug sensitivity score on HepG2, item CN(N=O)C(=O)N[C@@H](C=O)[C@@H](O)[C@H](O)[C@H](O)CO [streptozotocin] ?
Completion: 0

Prompt: Quick check: drug sensitivity score on HepG2, item CC(C)c1ccc(C(=O)c2cccs2)c(SCCCCCCCCN(C)C)n1 ?
Completion: 3.6

Prompt: Quick check: drug sensitivity score on HepG2, item CCCCOc1cc(C(=O)NCCN(CC)CC)c2ccccc2n1 [cinchocaine] ?
Completion: 0.1
